test system: UACC-62; assay: NCI tumour cell line growth inhibition, 48 h
Activity calls are given as the source filed them. Rule as the data show it: active = GI50 up to about 1.1 µM and inactive = higher.
Examples of compounds with documented GI50 follow.

sample.smiles | experimental.target | GI50
CCOC(=O)c1[nH]c2cc(OC)c(OC)cc2c1CN(C)C | UACC-62 | > 100 µM (inactive)
CCOC(=O)COc1ccc2c(C)cc(=O)oc2c1 | UACC-62 | > 100 µM (inactive)
COc1ccc(-c2oc3c(OC)c(OC)cc(O)c3c(=O)c2OC)cc1 | UACC-62 | > 100 µM (inactive)
c1ccc2c(c1)CCc1c-2n(CCN2CCOCC2)c2ccccc12 | UACC-62 | > 100 µM (inactive)
CC(C)(C)c1ccc2c(c1)OP1(Oc3c(Cl)cc(Cl)c4cccnc34)(O2)Oc2ccc(C(C)(C)C)cc2O1 | UACC-62 | 5.37 µM (inactive)
O=c1ccc2ccc(CBr)cc2o1 | UACC-62 | 10.8 µM (inactive)

---

tested on: TK-10; assay: NCI tumour cell line growth inhibition, 48 h
The source made the active and inactive calls. Rule as the data show it: active = GI50 up to about 1.1 µM and inactive = higher.
Outcomes: Yes (active), No (inactive)

compound | experimental.target | label.value
CC(C)(CO)CNc1cc(Cl)nc(N)n1 | TK-10 | No
CSC(=O)/C=C1\SS/C(=C\C(=O)SC)S1 | TK-10 | No
O=[N+]([O-])c1cccc(/C=N/C23CC4CC(CC(C4)C2)C3)c1 | TK-10 | No
CC[C@]1(O)CC(OC2CC(N(C)C)C(O)C(C)O2)c2c(cc3c(c2O)C(=O)c2c(O)cccc2C3=O)[C@@H]1C(=O)OC (stereo not given in full) | TK-10 | Yes
O=C1C(Cl)=C(NCCN2CCOCC2)C(=O)c2ncccc21 | TK-10 | No

---

test system: HL-60; test: NCI tumour cell line growth inhibition, 48 h
The source made the active and inactive calls. No stated cut-off is given here; in the data, active = GI50 up to about 1.1 µM and inactive = higher. Where a SMILES comes first, the peptide text is derived from it. The star is where a group is joined. Cbz = O=C(OCc1ccccc1)*; OBn = c1ccc(CO*)cc1
Classes used: y for active, n for inactive

compound | experimental.target | label.value
Cc1cnc2[nH]c(-c3cccc(F)c3)cc(=O)c2c1 | HL-60 | y
CCOC(=O)C(C(=O)Cc1ccccc1)c1ccccc1 (configuration not stated) | HL-60 | n
NC(CCCCNCc1ccccc1O)C(=O)O (configuration not stated) | HL-60 | n
CC(=O)c1c(O)c2c([nH]c1=O)CCCC2 | HL-60 | n
COC(=O)C(Cc1ccc(O)cc1)NC(=O)C(CC(=O)OCc1ccccc1)NC(=O)OCc1ccccc1 (configuration not stated) (Cbz-Asp(OBn)-Tyr-OMe; configuration not given here) | HL-60 | n
COC(=O)c1c2c(cc3c1CC1(Cc4ccccc4C1=O)C3)CCC2 (configuration not stated) | HL-60 | n
N#CCCN(c1ccc(/C=C2\N=C(c3ccc(Cl)cc3)OC2=O)cc1)S(=O)(=O)c1ccccc1 | HL-60 | n
O=C1c2ccccc2-c2nnc3c(c21)-c1ccccc1C3 | HL-60 | n
O=C1/C(=C/c2cccc(Br)c2)CSC/C1=C\c1cccc(Br)c1 | HL-60 | n
O=C1C=C(Nc2cccnc2)c2ccccc2C1=O | HL-60 | n
O=c1c2ccccc2nc2n1CCc1c-2[nH]c2cc3c(cc12)OCO3 | HL-60 | n
COc1cc2c(/C=C3/C(=O)Nc4ccccc43)c(Cl)n(Cc3ccc(Cl)cc3)c2cc1C | HL-60 | y
NC1CC(=O)c2c(I)sc(I)c21 (configuration not stated) | HL-60 | n
COc1cc(C(c2c(O)c3ccccc3oc2=O)c2c(O)c3ccccc3oc2=O)cc(Br)c1O | HL-60 | n
CN1CCN(CC(=O)N2CCCn3c2nc2ccccc2c3=O)CC1 | HL-60 | n
N#CC(C(=O)C(=O)C(C#N)c1ccc(Br)cc1)c1ccc(Br)cc1 (configuration not stated) | HL-60 | n
Nc1nc(Cl)nc2c1ncn2C1CC(O)C(CO)O1 (configuration not stated) | HL-60 | y
CC(=O)c1ccc(NC(=O)C(=O)Nn2c(S)nc3ccccc3c2=O)cc1 | HL-60 | n
O=C1/C(=C/c2ccc(O)cc2)CCc2ccccc21 | HL-60 | n
CC(=O)c1c(-c2ccc(Cl)cc2)c(C#N)c(=S)n(C2OC(CO)C(O)C(O)C2O)c1C (configuration not stated) | HL-60 | n
CCOC(=O)c1c(CN2CCCC2)n(-c2ccccc2)c2cc(Br)c(OC)cc12 | HL-60 | n
N#CC1(C2CC(=O)N(c3ccccc3)C2=O)CCCCC1=O (configuration not stated) | HL-60 | n

Numbers sourced from ChEMBL document CHEMBL1201862.
